System: HCC827
Assay: Growth of cancer cells (Cell Titer-Glo viability), HCC827
Format: cell-based
Conditions: Homo sapiens; HCC827 (mutant EGFR del19), 72 hrs
Measurement Type: GI50 (nM)
Quick reminder: number only, in nM, skip the unit.

# get_value(readout= GI50, system= HCC827) for C=CC(=O)Nc1cc(Nc2ncc(Cl)c(Nc3ccccc3C(=O)NC)n2)c(OC)cc1N1CCN(C(C)=O)CC1
83

# get_value(readout= GI50, system= HCC827) for C=CC(=O)Nc1cc(Nc2ncc(Cl)c(Nc3ccccc3P(C)(C)=O)n2)c(OC)cc1N1CCC(N2CCCCC2)CC1
5

----------
Tested on: NCI-H2228
Measurement Type: GI50 (µM)
Quick reminder: number only, in µM, skip the unit.

[
  {
    "Smiles Text": "C=CC(=O)Nc1cc(Nc2ncc(Cl)c(Nc3ccccc3S(=O)(=O)C(C)C)n2)c(OC)cc1N1CCCCC1",
    "Tested System": "NCI-H2228",
    "GI50 [µM]": 0.2
  },
  {
    "Smiles Text": "C=CC(=O)Nc1cc(Nc2ncc(Cl)c(Nc3ccccc3S(=O)(=O)N(C)C)n2)c(OC)cc1N1CCN(C)CC1",
    "Tested System": "NCI-H2228",
    "GI50 [µM]": 0.49
  },
  {
    "Smiles Text": "C=CC(=O)Nc1cc(Nc2ncc(Cl)c(Nc3ccccc3S(=O)(=O)C(C)C)n2)c(OC)cc1N1CCN(C(=O)OC(C)(C)C)CC1",
    "Tested System": "NCI-H2228",
    "GI50 [µM]": 0.56
  },
  {
    "Smiles Text": "C=CC(=O)Nc1cc(Nc2ncc(Cl)c(Nc3ccccc3S(=O)(=O)C(C)C)n2)c(OC)cc1N1CCN(CC2CC2)CC1",
    "Tested System": "NCI-H2228",
    "GI50 [µM]": 0.028
  },
  {
    "Smiles Text": "C=CC(=O)Nc1cc(Nc2ncc(Cl)c(Nc3ccccc3S(=O)(=O)C(C)C)n2)c(OC)cc1N1CCN[C@H](C)C1",
    "Tested System": "NCI-H2228",
    "GI50 [µM]": 0.031
  },
  {
    "Smiles Text": "C=CC(=O)Nc1cc(Nc2ncc(Cl)c(Nc3ccccc3S(=O)(=O)C(C)C)n2)c(OC)cc1N1CCN(Cc2ccccc2)CC1",
    "Tested System": "NCI-H2228",
    "GI50 [µM]": 0.066
  },
  {
    "Smiles Text": "C=CC(=O)Nc1cc(Nc2ncc(Cl)c(Nc3ccccc3S(=O)(=O)C(C)C)n2)c(OC)cc1N1CCN(S(C)(=O)=O)CC1",
    "Tested System": "NCI-H2228",
    "GI50 [µM]": 0.24
  },
  {
    "Smiles Text": "C=CC(=O)Nc1cc(Nc2ncc(Cl)c(Nc3ccccc3S(=O)(=O)C(C)C)n2)c(OC)cc1N1CCN(C)CC1",
    "Tested System": "NCI-H2228",
    "GI50 [µM]": 0.25
  }
]

Turning to the following compound.
# get_value(readout= GI50, system= NCI-H2228) for C=CC(=O)Nc1cc(Nc2ncc(Cl)c(Nc3ccccc3S(=O)(=O)C(C)C)n2)c(OC)cc1N1CCNCC1
0.0074

// provenance: patent US10350210B2
